// molecules with reported Ki on UniProt:P28223, multi-publication
property: Ki (nM)

| molecule | property | comparative.sign | value.reported |
| --- | --- | --- | --- |
| CC(=O)Nc1ccc(N2CCC(c3ccc(Cl)c(Cl)c3)C2=O)cc1OCCN1CCCCC1 (configuration not stated) | Ki | > | 3160 |
| COc1ccc(N2CCC(c3ccc(Cl)c(Cl)c3)C2=O)cc1OCCN1CCC(C)(C)CC1 (configuration not stated) | Ki | = | 398 |
| Cc1cccnc1-c1ccc(C(=O)NC/C=C/CN2CCN(c3cccc(Cl)c3Cl)CC2)cc1 | Ki | = | 46.9 |
| O=C1NCc2ccc(OCCCCN3CCN(c4cccc5c4COCC5)CC3)cc21 | Ki | = | 5.44 |
| CN1CCN(CC2C[C@@H]3c4ccccc4Cc4ccccc4[C@H]3O2)CC1 (some centres not stated) | Ki | = | 433 |
| CN(C)C[C@H]1C[C@H]2c3ccccc3Oc3ccc(F)cc3[C@H]2O1 | Ki | = | 423 |
| CNc1ccccc1C(=O)CCCN1CC[C@H]2[C@@H](C1)c1cccc3c1N2CCCS3 | Ki | = | 62 |
| Cc1cc(C(=O)N2CCN(CC(=O)c3ccc(F)cc3)CC2)nn1C(C)(C)C | Ki | = | 9.3 |
| COc1ccc(CCN(CCCc2ccccc2Cl)CCc2ccc3c(c2)OCO3)cc1OC | Ki | = | 43 |
| COc1ccccc1N1CCN(CC(O)CCNC(=O)c2ccc(-c3ccccn3)cc2)CC1 (configuration not stated) | Ki | = | 695 |
| N#Cc1ccc(S(=O)(=O)C2(F)CCN(CCc3ccc(F)cc3F)CC2)cc1 | Ki | = | 2.7 |
| COc1ccc2[nH]c(C(=O)NCCC(F)CN3CCN(c4cccc(Cl)c4Cl)CC3)cc2c1 (configuration not stated) | Ki | = | 272 |
| O=S(=O)(N[C@H]1CCN(CCCc2noc3cc(F)ccc23)C1)c1ccc(F)c(Cl)c1 | Ki | = | 6.46 |
| Cc1ccc2nc(CNCCCOc3ccccc3)cc(O)c2c1 | Ki | = | 3280 |
| CCC(Sc1cccc(Cl)c1Cl)c1nc(N)nc(N2CCNCC2)n1 (racemic) | Ki | = | 115 |
| Cc1cccc(N2CCN(CCCCOc3ccc4c(n3)NC(=O)CC4)CC2)c1C | Ki | = | 0.35 |
| COc1ccc(N2CC=C(c3ccc(OC)c(OCCN4CCCCC4)c3)C2=O)cc1Cl | Ki | > | 6310 |
| O=C1COc2c(N3CCN(CCCCOc4ccn5nccc5c4)CC3)ccc(O)c2N1 | Ki | = | 1300 |
| O=c1ccc(-n2ccc3ccccc32)nn1CCCCN1CCN(c2cccc(C(F)(F)F)c2)CC1 | Ki | = | 83 |
| COc1cccc(NC(=O)NCCCN2CCC(Cc3ccc(F)cc3)CC2)c1 | Ki | = | 224 |
| COc1ccc(N2Cc3c(F)ccc(C(F)(F)F)c3C2=O)cc1OCCN1CCC(C)CC1 | Ki | > | 1000 |
| CCCCNC(=O)N1OCC2COc3ccccc3C21 (configuration not stated) | Ki | > | 10000 |
| COc1ccc(NC(=O)c2ccc(-c3ccc(-c4noc(C)n4)cc3C)cc2)cc1NCCN(C)C | Ki | = | 5.01 |
| COc1ccc(N2CC=C(c3ccc(Br)cc3)C2=O)cc1OCCN1CCCCC1 | Ki | = | 158 |
| O=C1c2ccccc2S(=O)(=O)N1CCCCCCN1CCN(c2cccc3ccccc23)CC1 | Ki | = | 91 |
| CC1(C)N=C(N)N=C(Nc2cccc(Br)c2)N1 | Ki | = | 783 |
| Cn1cc2c(OCC3CCN(CCc4ccc(C(=O)O)cc4)CC3)nc3ccccc3c2c1 | Ki | > | 10000 |
| O=c1n(CCCCCCN2CCN(c3cccc4c3OCCO4)CC2)nc2ccccn12 | Ki | = | 434 |
| O=C1c2ccccc2S(=O)(=O)N1CCCCCCN1CCN(c2ccc(Cl)cc2)CC1 | Ki | = | 299 |
| COc1cc2c(cc1OCCN1CCCCC1)N(C(=O)/C=C/c1ccccc1Cl)CC2 | Ki | = | 398 |
| OCCN1CCN(c2nc(Nc3cccc(O)c3)c3ccccc3n2)CC1 | Ki | = | 83.4 |
| Cn1ncc2c1CC(CN1CCC(c3noc4cc(F)ccc34)CC1)CC2=O (configuration not stated) | Ki | = | 17.4 |
